Please provide measured IC50 for the entries that follow.
Test system: IFNα-stimulated Kit225 T cells with STAT-dependent luciferase reporter
Assay: Kit225 T cell assay, STAT-dependent luciferase reporter, IFNα stimulated
Format: cell-based, human
Details: Homo sapiens, KIT225, 200 U/mL human recombinant IFNα, 5-6 hours, read-out: IFNa Kit225 Reporter, LE (IC50)
Kindly provide the numeric value in nM only, without the unit symbol.

Memo: O=C(N[C@H]1C[C@@H]1F)c1cnc2c3c(c(Nc4cccn(-c5ccccn5)c4=O)nn12)OCCN3 , reported IC50: 90

Reported IC50 for CNc1cc(Nc2cccn(-c3ccc(C(=O)N(C)C)cc3)c2=O)nn2c(C(=O)NCC(C)(C)CO)cnc12 was 290

IC50 reading for CNc1cc(Nc2ccnn(-c3ccccc3)c2=O)nn2c(C(=O)NC3CCC3)cnc12 : 380

response.value for CNc1cc(Nc2cccn(-c3ccc(C#N)cc3)c2=O)nn2c(C(=O)NCC(C)(C)CO)cnc12 (field: IC50) = 100
